- System: umbrella sedge (Cyperus difformis)
- assay notes: Test B flooded paddy test
- Type: in vivo
- condition parameters: Cyperus difformis, Flood, 1000 g ai/ha; scale 0 to 100; read-out: Plant response rating, Sedge, Umbrella
The reader will find reported pest or weed control at 1000 g/ha values listed item by item below.
Your answer should be a plain number; it is taken to be in %.

Nc1nc(C2CC2)nc(CO)c1Br [Compound 21] : 0
CCOC(=O)c1nc(C2CC2)nc(N)c1Cl [Compound 4] : 80
CCOC(=O)c1nc(C2CC2)nc(N)c1F [Compound 30] : 0
COC(=O)c1nc(C2CC2)nc(N)c1F [Compound 25] : 40

# input for lookup
Dear colleague, I am looking for the recorded pest or weed control at 1000 g/ha of the following molecule: COC(=O)c1nc(-c2ccccc2)nc(N)c1Br [Compound 23]
0
